B1: library; numbered along this chain (parent)
chain: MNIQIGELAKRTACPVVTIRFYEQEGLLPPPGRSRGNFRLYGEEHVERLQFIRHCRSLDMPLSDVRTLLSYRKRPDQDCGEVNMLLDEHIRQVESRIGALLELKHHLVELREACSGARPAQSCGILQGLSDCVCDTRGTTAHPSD

Variants of: B1
Assay: sfGFP reporter fluorescence (15 h) (µM FITC); higher = higher leak
Conditions: library round: Round 0; ligand: none
Below: a set of entries, each annotated with reported sfGFP reporter fluorescence.
Reply with just the number.

- QUERY SEQUENCE: "MNIQIGELAKRTACPVVTIRFYEQEGLLPPPGRSRGNFRLYGEEHVERLQFIRHCRSHDMPLSDVRTLLSYRKRPDQDCGEVNMLLDEHIRQVESRIGALLELKHHLVELREACSGARPAQSCGILQGLSDCVCDTRGTTAHPSD"
  sfGFP reporter fluorescence: 0.059
- QUERY SEQUENCE: "MNIQIGELAKRTACPVVTIRFYEQEGLLPPPGRSRGNFRLYGEEHVERLQFIRHCRSLDMPLSDVRTLLSYRKRPDQDCGEVNMLLDEHIRQVESRIGALLELKHHLVELREACSGARPAQSCGYLQGLSDCVCDTRGTTAHPSD"
  sfGFP reporter fluorescence: 0.059
- QUERY SEQUENCE: "MNIQILELAKRTACPVVTIRFYEQEGLLPPPGRSRGNFRLYGEEHVERLQFIRHCRSLDMPLSDVRTLLSYRKRPDQDCGEVNMLLDEHIRQVESRIGALLELKHHLVELREACSGARPAQSCGILQGLSDCVCDTRGTTAHPSD"
  sfGFP reporter fluorescence: 0.0607
- QUERY SEQUENCE: "MNIQIGELAKRTACPVVTIRFYEQEGLLPPPGRSRGNFRLYGEEHVERLQFIRHCRSLDMPLSDVRTLLSYRKRPDQDCGEVNMLLDEHIRQVESRIGALLELKHHLVELREACSGARPAQSEGILQGLSDCVCDTRGTTAHPSD"
  sfGFP reporter fluorescence: 0.0583
- QUERY SEQUENCE: "MNIQIGELAKRTACPVVTIRFYEQEGLLPPPGRSRGNFRLYGEEHVERLQFIRHCRSLDSPLSDVRTLLSYRKRPDQDCGEVNMLLDEHIRQVESRIGALLELKHHLVELREACSGARPAQSCGILQGLSDCVCDTRGTTAHPSD"
  sfGFP reporter fluorescence: 0.0601

Let me know recorded sfGFP reporter fluorescence for `MNIQIGELAKRTACPVVTIRFYEQEGLMPPPGRSRGNFRLYGEEHVERLQFIRHCRSLDMPLSDVRTLLSYRKRPDQDCGEVNMLLDEHIRQVESRIGALLELKHHLVELREACSGARPAQSCGILQGLSDCVCDTRGTTAHPSD` , thanks. 0.0616

Let me know recorded sfGFP reporter fluorescence for `MNIQIGELAKRTACPVVTIRFYEQEGLLPPPGRSRGNFRLYGEEHVERLQFIRHCRSLDMPLSDVRTLLSYRKRPDQDCGEVNMLLDEHIRQVESRIGALLELKHHLVELREACSGARPAQSCGILQGLSDCVCDTRATTAHPSD` , thanks. 0.0597
